# Tested on: antibodies in sera from SARS patients (sera 1a, 1b, 2, 6, 37, 62, London, SARS-yellow, SARS-green)
# Type: binding, human
# Set-up: unit not given here
assay_readout: Binding of serum 37 to linear peptides of protein N of SARS-CoV Urbani

Prompt line: Name the recorded Binding of serum 37 to linear peptides of protein N of SARS-CoV Urbani of the sequence listed here: GALNTPKDHIGTRNP
Response line: 0.7

For the next question, use this sequence.
Prompt line: Name the recorded Binding of serum 37 to linear peptides of protein N of SARS-CoV Urbani of the sequence listed here: EASLPYGANKEGIVW
Response line: 0.5

---

Entries annotated with measured Binding of a rabbit serum to looped peptides
# Tested on: rabbit serum obtained by immunizing a rabbit with the SARS-CoV strain Frankfurt 1
# Format: binding
# Design: unit not given here

Consider the following illustrative entries.
Prompt line: Name the recorded Binding of a rabbit serum to looped peptides of the sequence listed here: SPASTVHATATIPLQ
Response line: 0.4

Prompt line: Name the recorded Binding of a rabbit serum to looped peptides of the sequence listed here: NSVTDTIVVTEGDGI
Response line: 0.5

Prompt line: Name the recorded Binding of a rabbit serum to looped peptides of the sequence listed here: VANPAMDPIYDEPTT
Response line: 0.5

Prompt line: Name the recorded Binding of a rabbit serum to looped peptides of the sequence listed here: SSGVANPAMDPIYDE
Response line: 0.6

Prompt line: Name the recorded Binding of a rabbit serum to looped peptides of the sequence listed here: YYQLESTQITTDTGI
Response line: 0.6

Prompt line: Name the recorded Binding of a rabbit serum to looped peptides of the sequence listed here: KTMSLYMAISPKFTT
Response line: 0.8

Prompt line: Name the recorded Binding of a rabbit serum to looped peptides of the sequence listed here: FLAVFQSATKIIALN
Response line: 0.6

Prompt line: Name the recorded Binding of a rabbit serum to looped peptides of the sequence listed here: KDPPNVQIHTIDGSS
Response line: 0.9

***
Prompt line: Name the recorded Binding of a rabbit serum to looped peptides of the sequence listed here: HSSSLTSLLKTHRMC
Response line: 0.5

Prompt line: Name the recorded Binding of a rabbit serum to looped peptides of the sequence listed here: QELLIQQWIQFMMSR
Response line: 0.4

Prompt line: Name the recorded Binding of a rabbit serum to looped peptides of the sequence listed here: SLSLHKLLQTLVLKM
Response line: 0.4

Prompt line: Name the recorded Binding of a rabbit serum to looped peptides of the sequence listed here: DTGIENATFFIFNKL
Response line: 0.6

Prompt line: Name the recorded Binding of a rabbit serum to looped peptides of the sequence listed here: VQIHTIDGSSGVANP
Response line: 0.4

Prompt line: Name the recorded Binding of a rabbit serum to looped peptides of the sequence listed here: GYFTEVYYQLESTQI
Response line: 0.5

Prompt line: Name the recorded Binding of a rabbit serum to looped peptides of the sequence listed here: LALYKGFQFICNLLL
Response line: 0.6

---

# System: antibodies in sera from SARS patients (sera 1a, 1b, 2, 6, 37, 62, London, SARS-yellow, SARS-green)
# Assay type: binding, human
assay_readout: Binding of serum 6 to looped/cyclic peptides of protein X2 of SARS-CoV Urbani

Consider the following illustrative entries.
Prompt line: Name the recorded Binding of serum 6 to looped/cyclic peptides of protein X2 of SARS-CoV Urbani of the sequence listed here: FTTSLSLHKLLQTLV
Response line: 0.8

Prompt line: Name the recorded Binding of serum 6 to looped/cyclic peptides of protein X2 of SARS-CoV Urbani of the sequence listed here: LLKVTAFQHQNSKKT
Response line: 0.2

Prompt line: Name the recorded Binding of serum 6 to looped/cyclic peptides of protein X2 of SARS-CoV Urbani of the sequence listed here: LLQTLVLKMLHSSSL
Response line: 0.7

Prompt line: Name the recorded Binding of serum 6 to looped/cyclic peptides of protein X2 of SARS-CoV Urbani of the sequence listed here: LCKHKKVSTNLGTHS
Response line: 0.3

Prompt line: Name the recorded Binding of serum 6 to looped/cyclic peptides of protein X2 of SARS-CoV Urbani of the sequence listed here: AISPKFTTSLSLHKL
Response line: 0.8

***
Prompt line: Name the recorded Binding of serum 6 to looped/cyclic peptides of protein X2 of SARS-CoV Urbani of the sequence listed here: STNLCTHSFRKKQVR
Response line: 0.6

Prompt line: Name the recorded Binding of serum 6 to looped/cyclic peptides of protein X2 of SARS-CoV Urbani of the sequence listed here: LLKTHRMCKYTQSTA
Response line: 0.3

Prompt line: Name the recorded Binding of serum 6 to looped/cyclic peptides of protein X2 of SARS-CoV Urbani of the sequence listed here: SLSLHKLLQTLVLKM
Response line: 0.9
